system: mock-infected MT-4 cells; assay: Cytotoxicity against mock-infected MT-4 cells, MTT; assay type: cell-based; settings: mock-infected MT-4 cells, MTT; read-out: CC50, concentration required to reduce the viability of mock-infected MT-4 cells by 50%
Measurement label: CC50 (µM)
Numeric answer only, unit µM assumed.

Request the reported CC50 associated with Cc1cn([C@H]2C[C@H](N=[N+]=[N-])[C@@H](CO)O2)c(=O)[nH]c1=O [AZT, reference compound] 64.5

---

test system: influenza A (H1N1); assay: microbe, parasite or virus in culture; format: cell-based; details: strain A(H1N1), MDCK cells
Measurement label: Selectivity Index (CC50 divided by EC50)

| Molecule | Selectivity Index (CC50 divided by EC50) |
| --- | --- |
| NC(=O)c1ncn([C@@H]2O[C@H](CO)[C@@H](O)[C@H]2O)n1 [Ribavirin, ribavirin, reference compound] | >27 |
| Cc1cc(C)nc(NS(=O)(=O)c2ccc(NCN3CCN(c4cc5c(cc4F)c(=O)c(C(=O)O)cn5C4CC4)CC3)cc2)n1 | >5.6 |
| COc1c(N2CCN(CNc3ccc(S(=O)(=O)Nc4ncccn4)cc3)CC2)c(F)cc2c(=O)c(C(=O)O)cn(C3CC3)c12 | >3 |
| O=C(O)c1cn(C2CC2)c2cc(N3CCN(CNc4ccc(S(=O)(=O)Nc5ncccn5)cc4)CC3)c(F)cc2c1=O | >6.1 |

Request the reported Selectivity Index (CC50 divided by EC50) associated with COc1c(N2CCN(CNc3ccc(S(=O)(=O)Nc4nc(C)cc(C)n4)cc3)CC2)c(F)cc2c(=O)c(C(=O)O)cn(C3CC3)c12 >3.1
